- Tested on: MYB mRNA
- protocol_notes: Gene panel canonical junction qPCR assay, decrease in CJ mRNA, Table 3
- Format: cell-based
- test_conditions: decrease in canonical junction (CJ) mRNA, gene panel qPCR, Table 3
Where a name gives a salt, the structure may show the parent alone.
Provide the recorded IC50 for the entries that follow.

{"compound": "CNC1CCC(Oc2ccc(C(=O)Nc3cc4cn(C)nc4cc3OC)c3nn(C)cc23)C1 (stereo not drawn)", "measured_result": "100 to 1000 nM"}
{"compound": "Cc1cn2cc(NC(=O)c3c(F)cc(N4CCC(NC5CC5)CC4)c4cn(C)nc34)c(OC3CC3)c(F)c2n1", "measured_result": "< 100 nM"}
{"compound": "CCNC1CCN(c2ccc(C(=O)Nc3cc(C(=O)NC)c4nc(C)cn4c3)c3nn(C)cc23)CC1 [Compound 319, trifluoroacetate]", "measured_result": "> 10000 nM"}

Give measured IC50 for every item shown.
1. COc1cc2nn(C)cc2cc1NC(=O)c1ccc(N2CCC3(CCCN3)C2)c2cn(C)nc12 (stereo not drawn)
2. Cc1cn2cc(NC(=O)c3ccc(N4CCNC(C(F)F)C4)c4cn(C)nc34)cc(F)c2n1 (stereo not drawn)
3. COc1cc2nn(C)cc2cc1NC(=O)c1ccc(N2CCC(NC3CC3)CC2)c2c(CO)n(C)nc12
4. COc1cc2nccn2cc1NC(=O)c1ccc(N2CCC(NC3CC3)CC2)c2cn(C)nc12
5. CCNC1CCN(c2ccc(C(=O)Nc3cc(Oc4ccc(C)cc4)c4nc(C)cn4c3)c3nn(C)cc23)CC1 [Compound 328, 2,2,2-trifluoroacetate]
6. CCNC1CCN(c2ccc(C(=O)Nc3cc(CO)c4nc(C)cn4c3)c3nn(C)cc23)CC1
7. Cc1cc2sc(NC(=O)c3ccc(N4CCC(NC5CC5)CC4)c4cn(C)nc34)cc2c(C)n1

Result:
["1000 to 10000 nM", "100 to 1000 nM", "1000 to 10000 nM", "> 10000 nM", "< 100 nM", "100 to 1000 nM", "1000 to 10000 nM"]

Record IC50 per entry; entries follow.
1. CC(=O)NCc1nc(C)cn2cc(NC(=O)c3c(F)cc(N4CCC(NC5CC5)CC4)c4cn(C)nc34)nc12
2. CCNC1CCN(c2ccc(C(=O)Nc3cn4cc(C)nc4c(F)c3OC)c3[nH]ncc23)CC1
3. CCNC1CCN(c2cc(F)c(C(=O)Nc3cn4cc(CO)nc(C)c4n3)c3nn(C)cc23)CC1

Result:
1: 1000 to 10000 nM; 2: < 100 nM; 3: 1000 to 10000 nM

List reported IC50 for each of these compounds:
1. Cc1cn2cc(NC(=O)c3ccc(N(C)C4CCNCC4)c4cn(C)nc34)nc2c(C)n1
2. Cc1cn2cc(NC(=O)c3ccc(N4CCNCC4)c4nonc34)cc(F)c2n1

Result:
["100 to 1000 nM", "100 to 1000 nM"]

---

Would you kindly list IC50 for each of these molecules?
- Test system: MYB mRNA
- protocol_notes: Gene panel canonical junction qPCR assay, decrease in CJ mRNA, Table 3
- Type: cell-based
- test_conditions: decrease in canonical junction (CJ) mRNA, gene panel qPCR, Table 3

{"molecule": "Cc1cn2cc(NC(=O)c3ccc(N4CCC(NC5CC5C)CC4)c4cn(C)nc34)cc(F)c2n1 (centres unmarked)", "IC50": "< 100 nM"}
{"molecule": "COc1cc2nn(C)cc2cc1NC(=O)c1ccc(N2CCC3(CCN3)CC2)c2cn(C)nc12", "IC50": "< 100 nM"}
{"molecule": "CCOc1cc2nn(C)cc2cc1NC(=O)c1c(F)cc(N2CCC(NC3CC3)CC2)c2cn(C)nc12", "IC50": "< 100 nM"}

// each listed molecule needs a value for IC50
1. COc1cc2nn(C)cc2cc1NC(=O)c1ccc(N2CC[C@@H]3CNCC[C@@H]32)c2cn(C)nc12
2. CCNC1CCN(c2ccc(C(=O)Nc3cn4cc(C5CC5)nc(C)c4n3)c3nn(C)cc23)CC1
3. CCNC1CCN(c2cc(F)c(C(=O)Nc3cn4cc(C5CC5)nc4c(F)c3OC)c3nn(C)cc23)CC1
4. CNC1CCN(c2cc(F)c(C(=O)Nc3cn4cc(C)nc(C)c4n3)c3nn(C)cc23)CC1
5. Cc1cn2cc(NS(=O)(=O)c3ccc(N4C[C@@H](C)N[C@@H](C)C4)c4cn(C)nc34)cc(F)c2n1
6. CCNC1CCN(c2ccc(C(=O)Nc3cc(Oc4ccc(Cl)cc4)c4nc(C)cn4c3)c3nn(C)cc23)CC1
7. Cc1cn2cc(NC(=O)c3ccc(N4CCC(NC5(CF)CC5)CC4)c4cn(C)nc34)cc(F)c2n1

Result:
1. 100 to 1000 nM
2. > 10000 nM
3. > 10000 nM
4. < 100 nM
5. > 10000 nM
6. 100 to 1000 nM
7. < 100 nM

---

- Tested on: MYB mRNA
- protocol_notes: Gene panel canonical junction qPCR assay, decrease in CJ mRNA, Table 3
- Assay type: cell-based
- test_conditions: decrease in CJ mRNA levels, canonical junction qPCR, gene panel
Give measured IC50 for each item. Keep answers brief.

// known answers, use as guide
{"compound": "COc1nc2c(C(=O)Nc3cc(F)c4nn(C)cc4c3)ccc(N3CCN4CCC[C@H]4C3)c2s1 [Compound 745]", "measured_result": "< 100 nM"}
{"compound": "COc1cc2nn(C)cc2cc1NC(=O)c1c(Cl)cc(N2CCC(NC3CC3)CC2)n2cc(C)nc12 [Compound 627, 2,2,2-trifluoroacetate]", "measured_result": "> 10000 nM"}
{"compound": "CCNC1CCN(c2ccc(C(=O)Nc3cn4cc(C)nc(CC(=O)NC)c4n3)c3nn(C)cc23)CC1 [Compound 872]", "measured_result": "> 10000 nM"}
{"compound": "COc1nc2c(C(=O)Nc3cc(F)c4nn(C)cc4c3)ccc(N3CCN[C@@H](C(C)(C)C)C3)c2s1 [Compound 742]", "measured_result": "100 to 1000 nM"}
{"compound": "COc1cc(N2CCC(NC3CC3)CC2)c2cn(C)nc2c1C(=O)Nc1cc(CNS(C)(=O)=O)c2nn(C)cc2c1 [Compound 853]", "measured_result": "> 10000 nM"}

Would you mind listing IC50 for each of the following compounds?
1. Cc1cn2cc(NC(=O)c3ccc(N4CCC(NC5CC5)CC4)c4cn(C)nc34)nc2c(CNC(C)C(F)(F)F)n1 (centres unmarked) [Compound 791]
2. COc1nc2c(C(=O)Nc3cc(F)c4nn(C)cc4c3)ccc(N3CC4CCC(C3)N4)c2s1 [Compound 801]
3. COc1nc2c(N3CCC(NC4CC4)CC3)ccc(C(=O)Nc3cc4cn(C)nc4cc3OC)c2o1 [Compound 679]
4. COc1nc2c(C(=O)Nc3cc(F)c4nc(C)nn4c3)ccc(N3C[C@H](C)N[C@@H](C)C3)c2s1 [Compound 763]

Result:
["> 10000 nM", "< 100 nM", "100 to 1000 nM", "< 100 nM"]

---

Consider the following molecules; for each one, report its pIC50.
- System: HTT mRNA
- protocol_notes: Gene panel canonical junction qPCR assay, decrease in CJ mRNA, Table 3
- Type: cell-based
- test_conditions: decrease in CJ mRNA levels, canonical junction qPCR, gene panel
pIC50: −log10 of the molar value.

See these solved cases before continuing.
{"molecule": "Cc1cn2cc(NC(=O)c3ccc(N4C[C@@H](C)N[C@@H](C)C4)c4c3OCO4)cc(F)c2n1 [Compound 643]", "measured_quantity": "pIC50", "measured_result": "5.00 to 6.00"}
{"molecule": "Cc1cn2cc(NC(=O)c3ccc(N4CCC(NC5CC5)C4)c4c3OCO4)cc(F)c2n1 (centres unmarked) [Compound 649]", "measured_quantity": "pIC50", "measured_result": "< 5.00"}
{"molecule": "Cn1cc2cc(NC(=O)c3ccc(N4CCC(NC5CC5)CC4)c4cn(C)nc34)cc(CCNS(C)(=O)=O)c2n1 [Compound 840]", "measured_quantity": "pIC50", "measured_result": "5.00 to 6.00"}
{"molecule": "COc1nc2c(C(=O)Nc3cc4cn(C)nc4c(F)c3O)ccc(N3C[C@H](C)N[C@@H](C)C3)c2s1 [Compound 761]", "measured_quantity": "pIC50", "measured_result": "< 5.00"}
{"molecule": "CC(=O)Nc1nc2c(C(=O)Nc3cc(F)c4nn(C)cc4c3)ccc(N3C[C@H](C)N[C@@H](C)C3)c2s1 [Compound 724]", "measured_quantity": "pIC50", "measured_result": "6.00 to 7.00"}

Would you mind giving pIC50 for every molecule in the list below?
1. COc1c(NC(=O)c2ccc(N3CCC(NC4CC4)CC3)c3cc(C)nn23)cn2cc(C)nc(C)c12 [Compound 630]
2. Cc1cn2cc(NC(=O)c3ccc(N4CCC(NC5CC5)CC4)c4cn(C)nc34)nc2c(CCNS(C)(=O)=O)n1 [Compound 778]

Result:
5.00 to 6.00
< 5.00
